# test-summary: Biodistribution of 177Lu-labeled αMSH analogues in mice bearing SK-MEL-1 human melanoma
# particulars: male, NRG (NOD.Cg-Rag1tm1Mom Il2rgtm1Wjl/SzJ), mouse, spleen, total radioactivity
Give measured tissue uptake at 4 h for each item. Keep answers brief.

Request: So what's the measured tissue uptake at 4 h for this one? CCCC[C@H](NC(=O)CN1CCC(NC(=O)[C@H](CCCCNC(=O)CN2CCN(CC(=O)O)CCN(CC(=O)O)CCN(CC(=O)O)CC2)NC(=O)[C@H](CCC(=O)O)NC(=O)CCCc2ccc(I)cc2)CC1)C(=O)N[C@H]1CC(=O)NCCCC[C@@H](C(N)=O)N(C)C(=O)[C@H](Cc2c[nH]c3ccccc23)NC(=O)[C@H](CCCNC(=N)N)N(C)C(=O)[C@@H](Cc2ccccc2)NC(=O)[C@H](Cc2c[nH]cn2)NC1=O [^177Lu-labeled CCZ01118, metal not drawn]
Response: 1.45 %ID/g

Request: Further, for CCCC[C@H](NC(=O)CN1CCC(NC(=O)[C@H](CCCCNC(=O)CN2CCN(CC(=O)O)CCN(CC(=O)O)CCN(CC(=O)O)CC2)NC(=O)CNC(=O)CCCc2ccc(-c3ccc(C)cc3)cc2)CC1)C(=O)N[C@H]1CC(=O)NCCCC[C@@H](C(N)=O)N(C)C(=O)[C@H](Cc2c[nH]c3ccccc23)NC(=O)[C@H](CCCNC(=N)N)N(C)C(=O)[C@@H](Cc2ccccc2)NC(=O)[C@H](Cc2c[nH]cn2)NC1=O [^177Lu-labeled CCZ01158, metal not drawn] ?
Response: 2.5 %ID/g

Request: Next compound: CCCC[C@H](NC(=O)CN1CCC(NC(=O)[C@H](CCCCNC(=O)CN2CCN(CC(=O)O)CCN(CC(=O)O)CCN(CC(=O)O)CC2)NC(=O)CNC(=O)CCCc2ccc(I)cc2)CC1)C(=O)N[C@H]1CC(=O)NCCCC[C@@H](C(N)=O)N(C)C(=O)[C@H](Cc2c[nH]c3ccccc23)NC(=O)[C@H](CCCNC(=N)N)N(C)C(=O)[C@@H](Cc2ccccc2)NC(=O)[C@H](Cc2c[nH]cn2)NC1=O [^177Lu-labeled CCZ01148, metal not drawn]
Response: 4.21 %ID/g
